Here, each record is paired with measured STAT1 Activation EC50 (nM); pSTAT1 FACS, HT29 cells data.
Target: T1, heterodimeric receptor complex (IL-22Rα/IL-10Rβ) (human, UniProt Q8N6P7 16-574; Q08334 20-325)
T1 sequence (looked up) 1: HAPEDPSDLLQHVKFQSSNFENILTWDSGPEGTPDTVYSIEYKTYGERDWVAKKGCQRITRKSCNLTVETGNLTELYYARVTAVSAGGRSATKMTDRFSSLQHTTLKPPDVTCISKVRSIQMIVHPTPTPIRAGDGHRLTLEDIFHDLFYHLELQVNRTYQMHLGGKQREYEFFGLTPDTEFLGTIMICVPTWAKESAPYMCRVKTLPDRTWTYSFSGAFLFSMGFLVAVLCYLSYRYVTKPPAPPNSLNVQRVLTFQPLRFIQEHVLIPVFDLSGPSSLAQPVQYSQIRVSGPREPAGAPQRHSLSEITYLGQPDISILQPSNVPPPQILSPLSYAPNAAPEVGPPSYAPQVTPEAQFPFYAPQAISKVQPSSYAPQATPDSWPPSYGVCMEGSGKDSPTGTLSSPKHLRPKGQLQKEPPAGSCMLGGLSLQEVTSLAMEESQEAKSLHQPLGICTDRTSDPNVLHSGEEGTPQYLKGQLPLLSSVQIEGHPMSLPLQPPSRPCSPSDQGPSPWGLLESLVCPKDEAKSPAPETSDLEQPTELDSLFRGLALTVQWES
T1 sequence (looked up) 2: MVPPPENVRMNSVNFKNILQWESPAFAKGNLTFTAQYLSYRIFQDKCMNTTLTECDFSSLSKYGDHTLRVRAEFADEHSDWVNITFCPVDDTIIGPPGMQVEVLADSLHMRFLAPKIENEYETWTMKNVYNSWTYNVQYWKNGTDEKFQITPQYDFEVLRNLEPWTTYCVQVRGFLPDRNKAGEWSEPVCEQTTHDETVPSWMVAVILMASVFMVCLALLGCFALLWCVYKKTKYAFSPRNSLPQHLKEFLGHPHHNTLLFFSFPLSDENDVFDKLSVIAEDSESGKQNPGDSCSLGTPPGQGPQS
Assay: cell-based or functional assay
Please state the number and follow it with the unit.

The following binders have reported results that may help.
BINDER	VAL
60K-PEG-IL22-P120C (ligand, Cys at position 87 (SEQ ID NO:1 numbering) conjugated to 60 kDa PEG-maleimide (thioether linkage)) APISSHCRLDKSNFQQPYITNRTFMLAKEASLADNNTDVRLIGEKLFHGVSMSERCYLMKQVLNFTLEEVLFPQSDRFQPYMQEVVCFLARLSNRLSTCHIEGDDLHIQRNVQKLKDTVKKLGESGEIKAIGELDLLFMSLRNACI	86.2 nM
40K-PEG-IL22-P120C (ligand, Cys at position 87 (SEQ ID NO:1 numbering) conjugated to 40 kDa PEG-maleimide (thioether linkage)) APISSHCRLDKSNFQQPYITNRTFMLAKEASLADNNTDVRLIGEKLFHGVSMSERCYLMKQVLNFTLEEVLFPQSDRFQPYMQEVVCFLARLSNRLSTCHIEGDDLHIQRNVQKLKDTVKKLGESGEIKAIGELDLLFMSLRNACI	55.3 nM
hB3-his (ligand) APISSHCRLDKENFQQPYITNRTFMLAKEASLADNNTDVRLIGEKLFHGVSMSERCYLMKQVLNFTLEEVLFPQSDRFQPYMAEVVPFLAALSNALSTCHIEGDDLHIQRNVQKLKDTVKKLGESGEIKAIGELDLLFMSLRNACIHHHHHH	23 nM

Turning to the following binder.
Quick note, STAT1 Activation EC50 (nM); pSTAT1 FACS, HT29 cells for 80K-PEG-IL22-P50C (ligand, Cys at position 17 (SEQ ID NO:1 numbering) conjugated to 80 kDa PEG-maleimide (thioether linkage)) APISSHCRLDKSNFQQCYITNRTFMLAKEASLADNNTDVRLIGEKLFHGVSMSERCYLMKQVLNFTLEEVLFPQSDRFQPYMQEVVPFLARLSNRLSTCHIEGDDLHIQRNVQKLKDTVKKLGESGEIKAIGELDLLFMSLRNACI landed at 62.3 nM
